src = the supplement of paper PMC6555819

Tested on: PPARg:RXRa 270nM:90nM, anti-RXR (NR concentration 270 nM, RXRa partner concentration 90 nM)
Assay: PBM binding z-score (relative to random genomic background probes); higher = stronger binding; sequences stand for … in GC…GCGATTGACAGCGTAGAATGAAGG
PROPERTY: PBM binding z-score
Returns: the value as a bare number; no unit string appended.

QUERY: Find the recorded PBM binding z-score belonging to GCTGCTAGGTCAACTAATGGTCAGCTAAAGCTCG and report it.
RESULT: 3.11

QUERY: Give its PBM binding z-score value. Item: TAGCCTAGGTCATTCGGGCCAGTATAGTGTCGGC
RESULT: 2.21

QUERY: # lookup: PBM binding z-score of ATATGTAGGTTAACGGGTCATTCAGTTTGCGCAT
RESULT: 6.45

QUERY: Please look up its PBM binding z-score: TGAATGAGGTTAATGATCAGGGAACGTGGCGTCG
RESULT: 1.84

QUERY: # get_value(readout='PBM binding z-score', item= CCTTACGGGTCACGAGGTAATAGCACGACGAGCG )
RESULT: 6.63

QUERY: Given the sequence TCATAAAGGTAATACAGGTGAAAGTCGGCATCTA , what is its reported PBM binding z-score?
RESULT: 3

QUERY: What value of PBM binding z-score has been reported for the following sequence? CCTTCTAGGTCAATGGTCAGCTAAAGCAGCTCGC
RESULT: 6.5

QUERY: // query PBM binding z-score value for entry ATATGTTGGTTAGCTGGGGTCATTCAGACTAGGC
RESULT: 2.46

QUERY: What value of PBM binding z-score has been recorded for this entry: TCAGACAGGTGAAGGGAACTCAGGTACGCAGTCG
RESULT: 2.23

QUERY: I am curious: what PBM binding z-score value has been reported for TTACCAAGGTGAGCTGAAGTCGTTGATCCAACTC ?
RESULT: 0.143

QUERY: I'd like to know its PBM binding z-score. The sequence in question is TCTAGTTGGTCAAAGGTAACACACTCGAAATGCG
RESULT: 7.77

QUERY: What value of PBM binding z-score has been recorded for this entry: TTTTGTAGATCAAGCAGGTTAAGAAAGCCTGAGT
RESULT: 0.238

----------
Record form. Attribute: PBM binding z-score. Fill in for each entry.
Test system: RARb:RXRa (NR concentration 270 nM, RXRa partner concentration 90 nM)
Test: PBM binding z-score (relative to random genomic background probes); higher = stronger binding; sequences stand for … in GC…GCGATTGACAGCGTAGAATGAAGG
Please reply with the value in numeric form only.

QUERY: Field request: PBM binding z-score | item: TCATATAGGTAATACAGGTGAAAGTGGGCATCTA
RESULT: 0.826

QUERY: # PBM binding z-score lookup, item GCTCGGAGAACAAGGTCAGAGCTTTGTCCGTAGA
RESULT: 2.86

QUERY: I am curious: what PBM binding z-score value has been reported for CAAACTAGGTCAAGGTCCAAGTCGGTTTGTGCCA ?
RESULT: 4.18

QUERY: Entry ACTTACGGTTCAACGAGGTTATAGCACGCGTATA : reported PBM binding z-score = ?
RESULT: 1.59

QUERY: Looking for the measured PBM binding z-score of GCATATAGGTAATACAAGGTGAAACTCCGATTGT , can you help?
RESULT: 0.667

QUERY: Entry TTACCAAGGTGAAAGGTCGTTTATGCACGCCTTG has what PBM binding z-score?
RESULT: 2.75

QUERY: I have this sequence here, AATACAGGGTCACTAGGCCAGAGCAGGTACGAAT , and I need its recorded PBM binding z-score.
RESULT: 4.16

QUERY: Entry ATCTCTAGGAAACCAAGTTCAGTGAATGCCGAAC : reported PBM binding z-score = ?
RESULT: 0.938

QUERY: Any idea what its PBM binding z-score is? The sequence is CGTCCAAGGTCAGCAGGTCAGTGAGAGCGACGTG
RESULT: 5.39

QUERY: Fill blank: measured PBM binding z-score of the sequence TCTAGTTGGTAAAAGGTCACACACTCGAAATGCG is ____.
RESULT: 4.93

QUERY: What value of PBM binding z-score has been reported for the following sequence? CTACCAAGGTGAACAGGGTCGTTGATTACTATTC
RESULT: 1.75

QUERY: Tell me the measured PBM binding z-score of CTACCAACGTGAACAAGGTCGTTGATTACTATTC , please.
RESULT: 0.631

QUERY: Give its PBM binding z-score value. Item: TCGAGGAGGTTAGGGGCATTCAGAATGGCGTCGA
RESULT: 1.62

QUERY: Fill in the blank: the reported PBM binding z-score of TAGCCTAGGTCATTCAGGGGCCAGTACAGAAAGC is ____.
RESULT: 3.9

QUERY: Endpoint output: PBM binding z-score of TCGAGTAGGTTAGTCGGGGCACTCAGCCAACATA . Value?
RESULT: 0.524

QUERY: Item under review: AGAATGAGGTTATACGTAGATGAGGGAAGAAAGT . Reported PBM binding z-score?
RESULT: 1.57

QUERY: Which PBM binding z-score reading was recorded for the sequence TGAATGAGGATAAAGATCAGGGAACGTGGCGTCG ?
RESULT: -0.238

QUERY: Requested read-out: PBM binding z-score. Entry: TCTATTAGTTGATTAGGGCGACCGAAACAGCGGA
RESULT: 0.629

QUERY: Value lookup for PBM binding z-score; key = TAGCCTAGGTCATTCAGGGGCGAGTATAGAAAGC
RESULT: 3.89

QUERY: Give the measured PBM binding z-score of TCGAGTAGGTTCGTCGGGGCATTCAGCCAACATA .
RESULT: 0.556

QUERY: PBM binding z-score lookup needed for TAGCGTAGGTCATTCAGGGGCCAGTATAGAAAGC , thanks.
RESULT: 3.99

QUERY: Consider the sequence shown here: CGTCCCAGGTCAGCAGGTCAGTGAAAGCGACGTG What is its recorded PBM binding z-score?
RESULT: 4.12

QUERY: What value of PBM binding z-score has been reported for the following sequence? CGTCAAAGTTCAACGAAGGTAACGTAAAGCACGC
RESULT: 5.18

QUERY: For the sequence shown here, ACTACAGGGTCATCGTAGGCCAGAGTACGCACAG , give the reported PBM binding z-score.
RESULT: 4.45

QUERY: Would you kindly share the measured PBM binding z-score for CCTGCTAGGTCAATGGTCAGCTATAGCAGCTCGC ?
RESULT: 3.75

QUERY: Suppose we examine the sequence CCTAGTTGGTCAAGGTCACACACGCTATAGGTAC ; what PBM binding z-score value has been reported?
RESULT: 4.17

----------
System: LXRb homodimer (NR concentration 270 nM)
Assay: PBM binding z-score (relative to random genomic background probes); higher = stronger binding; sequences stand for … in GC…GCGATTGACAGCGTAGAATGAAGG
Can you tell me PBM binding z-score for the items I'm about to list?
Just the number.

QUERY: So what does the record say about PBM binding z-score for TAGCCCAGGTCAGATCGGGCCAGTATACGCTATA ?
RESULT: -0.412

QUERY: // lookup PBM binding z-score for GCTTGTAGATCAAGGTTAACAAAGACTAAGCTAA
RESULT: -0.488

QUERY: Any idea what PBM binding z-score was measured for CTACAAAGGTGAACAAGGTCGTTGATTACTATTC ?
RESULT: -0.0435

QUERY: Which PBM binding z-score is listed for GCTCGGAGGACAAGGTCGGAGCTTTGTCCGTAGA ?
RESULT: -1.14

QUERY: Please report the recorded PBM binding z-score for GATACAGGGTCAGCTAGAGGCCGGAGTATGGAAA .
RESULT: -0.594

QUERY: Name the reported PBM binding z-score value associated with the sequence CAGCTTAGGTCAGGGCCAGTATAGGAGGAACGTT
RESULT: -0.56

QUERY: Reported PBM binding z-score for TCTGCTAGGTCAACGATGGTCAGGTAATCTGCTA : what is it?
RESULT: -0.249

QUERY: Requested read-out: PBM binding z-score. Entry: GCTATTAGTTGAAAGTGCAACCGAATGATTCTCG
RESULT: 0.0186

QUERY: Look up PBM binding z-score for this sequence: ATCTCTAGGTATAGTTCAGTGAAAGATCGATAGA
RESULT: 1.21

QUERY: Which value of PBM binding z-score has been reported for CGTCCAAGGTCATAGGTCAGTGAAGAGATGACGG in the records?
RESULT: 1.02

QUERY: // query PBM binding z-score value for entry TTACCAAGGTGATGGTCGTTGATCCCTCTGTAGA
RESULT: -0.598

QUERY: What measured PBM binding z-score goes with TTATATAGGTAAATGCTAGGTGAAAGTCCGATCT ?
RESULT: 0.108
